Test: in vivo
Conditions: mouse, po, 416 mg/kg
Starred links: 1 amine or outer side, 2 acyl side, 3 side chain; linkers in the order of their positions; H or OH if unused. Positions of bridges follow the written chain, without caps; N, C: chain ends. Non-standard residues stand in square brackets, D forms with d. Residues, ends and D or L forms follow the SMILES beside them. *: point of attachment. Orn(4R-OH,5R-OH) = O=C([C@H](C[C@@H](O)[C@@H](O)N[*:3])N[*:1])[*:2]; hTyr(3S-OH,4S-OH) = N[C@H](C(=O)O)[C@H](O)[C@@H](O)c1ccc(O)cc1; Pro(3S-OH,4S-Me) = C[C@H]1CN[C@H](C(=O)O)[C@H]1O; Hyp = O=C(O)[C@@H]1C[C@@H](O)CN1; Tridecanoyl = CCCCCCCCCCCCC(=O)*

[
  {
    "Molecule": "CCCCCCCCCCCCC(=O)N[C@H]1C[C@@H](O)[C@@H](O)NC(=O)[C@@H]2[C@@H](O)[C@@H](C)CN2C(=O)[C@H]([C@@H](C)O)NC(=O)[C@H]([C@H](O)[C@@H](O)c2ccc(O)cc2)NC(=O)[C@@H]2C[C@@H](O)CN2C(=O)[C@H]([C@@H](C)O)NC1=O [Reference Example 1] (Tridecanoyl-[Orn(4R-OH,5R-OH)]T[Hyp][hTyr(3S-OH,4S-OH)]T[Pro(3S-OH,4S-Me)]; lactam 1-C)",
    "concentration at 4 h / µg/mL": 100
  }
]

---

Assay: Blood levels after oral administration in mice (bioassay vs. Aspergillus montevidensis)
Details: mouse, 416 mg/kg
Starred links: 1 amine or outer side, 2 acyl side, 3 side chain; linkers in the order of their positions; H or OH if unused. Positions of bridges follow the written chain, without caps; N, C: chain ends. Non-standard residues stand in square brackets, D forms with d. Residues, ends and D or L forms follow the SMILES beside them. *: point of attachment. Orn(4R-OH,5R-OH) = O=C([C@H](C[C@@H](O)[C@@H](O)N[*:3])N[*:1])[*:2]; hTyr(3S-OH,4S-OH) = N[C@H](C(=O)O)[C@H](O)[C@@H](O)c1ccc(O)cc1; Pro(3S-OH,4S-Me) = C[C@H]1CN[C@H](C(=O)O)[C@H]1O; Benzoyl(4-octyloxy) = CCCCCCCCOc1ccc(C(=O)*)cc1; Hyp = O=C(O)[C@@H]1C[C@@H](O)CN1; Lauroyl = CCCCCCCCCCCC(=O)*; 4Abz = Nc1ccc(C(=O)O)cc1
Readout Kind: concentration at 4 h

[
  {
    "Molecule": "CCCCCCCCCCCC(=O)Nc1ccc(C(=O)N[C@H]2C[C@@H](O)[C@@H](O)NC(=O)[C@@H]3[C@@H](O)[C@@H](C)CN3C(=O)[C@H]([C@@H](C)O)NC(=O)[C@H]([C@H](O)[C@@H](O)c3ccc(O)cc3)NC(=O)[C@@H]3C[C@@H](O)CN3C(=O)[C@H]([C@@H](C)O)NC2=O)cc1 [Reference Example 7] ({Lauroyl-4Abz}-[Orn(4R-OH,5R-OH)]T[Hyp][hTyr(3S-OH,4S-OH)]T[Pro(3S-OH,4S-Me)]; lactam 1-C)",
    "Readout Value": "830 µg/mL"
  },
  {
    "Molecule": "CCCCCCCCOc1ccc(C(=O)N[C@H]2C[C@@H](O)[C@@H](O)NC(=O)[C@@H]3[C@@H](O)[C@@H](C)CN3C(=O)[C@H]([C@@H](C)O)NC(=O)[C@H]([C@H](O)[C@@H](O)c3ccc(O)cc3)NC(=O)[C@@H]3C[C@@H](O)CN3C(=O)[C@H]([C@@H](C)O)NC2=O)cc1 [Reference Example 13] ({Benzoyl(4-octyloxy)}-[Orn(4R-OH,5R-OH)]T[Hyp][hTyr(3S-OH,4S-OH)]T[Pro(3S-OH,4S-Me)]; lactam 1-C)",
    "Readout Value": "23000 µg/mL"
  }
]
